Recorded IC50 by entry
biological target: Serine/threonine-protein kinase/endoribonuclease IRE1 [D688N] (Homo sapiens, UniProt O75460, D688N); assay: IRE1α TR-FRET Competition Binding Assay
Sequence (O75460 19-977 D688N limits assumed): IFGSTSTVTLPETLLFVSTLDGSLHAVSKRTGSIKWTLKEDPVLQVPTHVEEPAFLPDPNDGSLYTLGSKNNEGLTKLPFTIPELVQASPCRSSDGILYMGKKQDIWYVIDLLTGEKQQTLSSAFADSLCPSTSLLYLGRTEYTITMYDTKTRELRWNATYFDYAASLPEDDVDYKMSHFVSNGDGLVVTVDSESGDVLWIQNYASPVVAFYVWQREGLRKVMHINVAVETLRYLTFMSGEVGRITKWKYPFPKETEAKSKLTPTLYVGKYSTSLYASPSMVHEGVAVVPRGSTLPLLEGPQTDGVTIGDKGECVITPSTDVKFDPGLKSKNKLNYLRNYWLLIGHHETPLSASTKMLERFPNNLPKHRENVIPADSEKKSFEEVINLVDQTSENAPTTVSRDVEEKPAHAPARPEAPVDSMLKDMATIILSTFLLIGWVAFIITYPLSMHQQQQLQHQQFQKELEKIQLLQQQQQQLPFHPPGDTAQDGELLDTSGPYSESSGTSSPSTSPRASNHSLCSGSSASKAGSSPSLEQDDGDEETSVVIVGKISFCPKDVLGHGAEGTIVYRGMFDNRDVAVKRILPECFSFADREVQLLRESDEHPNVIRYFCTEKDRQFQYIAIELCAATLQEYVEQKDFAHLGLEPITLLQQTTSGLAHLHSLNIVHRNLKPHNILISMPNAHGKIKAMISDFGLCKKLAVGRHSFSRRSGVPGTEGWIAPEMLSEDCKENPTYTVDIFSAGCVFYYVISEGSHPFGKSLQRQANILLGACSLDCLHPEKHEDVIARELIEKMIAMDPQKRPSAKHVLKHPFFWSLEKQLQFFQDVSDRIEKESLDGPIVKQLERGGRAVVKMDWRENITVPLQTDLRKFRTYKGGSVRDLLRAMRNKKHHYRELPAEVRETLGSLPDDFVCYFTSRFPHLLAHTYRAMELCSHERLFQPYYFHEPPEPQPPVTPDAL
endpointName: IC50 (nM)

{"chemicalStructure": "O=S(=O)(Nc1ccc(Oc2ncccc2-c2ccnc(N[C@H]3CCCNC3)n2)c(F)c1F)c1ccccc1Cl", "endpointName": "IC50", "unit": "nM", "measured": 4.8}
{"chemicalStructure": "CN(C)[C@H]1CC[C@H](Nc2nccc(-c3cccnc3Oc3cc(F)c(NS(=O)(=O)CCC(F)(F)F)c(F)c3F)n2)CC1", "endpointName": "IC50", "unit": "nM", "measured": 2}
{"chemicalStructure": "O=S(=O)(CC(F)(F)F)Nc1c(F)cc(Oc2ncccc2-c2ccnc(N[C@@H]3CNC[C@@H](F)C3)n2)c(F)c1F", "endpointName": "IC50", "unit": "nM", "measured": 2.6}
